This collection of values is drawn from ChEMBL document CHEMBL5584249.

Reported IC50 is given for each of the following compounds.
target: Replicase polyprotein 1ab (Severe acute respiratory syndrome coronavirus 2); assay: Inhibition of recombinant SARS CoV-2 main protease by FRET assay; conditions: read-out: IC50
propertyName: IC50 (µM)

In [3]: df
Out[3]:
                             smilesinput  propertyname  reportedvalue
0      COc1ccc2[se]n(-c3ccccc3)c(=O)c2c1          IC50            6.4
1  CCCCCCCCc1ccc(-n2[se]c3ccccc3c2=O)cc1          IC50           2.69
2   CCCCCCCc1ccc(-n2[se]c3ccccc3c2=O)cc1          IC50           5.56
3  O=c1c2ccccc2[se]n1-c1ccc(C(F)(F)F)cc1          IC50            0.9

###

Reported pIC50 is given for each of the following compounds.
molecular target: Replicase polyprotein 1ab (Severe acute respiratory syndrome coronavirus 2, UniProt P0DTD1); test: Inhibition of recombinant SARS CoV-2 main protease by FRET assay
propertyName: pIC50

In [3]: df
Out[3]:
                              smilesinput  reportedvalue
 0  O=c1c2ccccc2[se]n1-c1cccc(C(F)(F)F)c1          5.558
 1       COc1ccc(F)cc1-n1[se]c2ccccc2c1=O          5.481
 2           Cc1ccccc1-n1[se]c2ccccc2c1=O          5.129
 3         Cc1ccc(-n2[se]c3ccccc3c2=O)cc1           5.64
 4        COc1ccc(-n2[se]c3ccccc3c2=O)cc1          5.903
 5        O=c1c2ccccc2[se]n1-c1ccc(Br)cc1          5.556
 6        O=c1c2ccccc2[se]n1-c1c(F)cccc1F           5.68
 7         O=c1c2ccccc2[se]n1Cc1ccc(F)cc1              6
 8    COc1ccc(Cn2[se]c3ccccc3c2=O)c(OC)c1          6.215
 9       COc1cc(F)ccc1-n1[se]c2ccccc2c1=O          5.745
10         O=c1c2ccccc2[se]n1-c1ccc(F)cc1          5.556
11        CCc1ccc(-n2[se]c3ccccc3c2=O)cc1          5.209
12    O=c1c2ccccc2[se]n1-c1cc(Cl)cc(Cl)c1          6.194
13       N#Cc1cccc(-n2[se]c3ccccc3c2=O)c1           6.42
14        O=c1c2ccccc2[se]n1-c1cccc(Cl)c1          6.167
